- assay.remarks: solvent given as SMILES
- reported.conditions: in ClCCl
Listed next: entries and their corresponding absorption maximum.
test.readout: absorption maximum (nm)

1) CCCCN1\C(=C/C=C/C=C/C2=[N+](CCCC)c3ccc4cc(Br)ccc4c3C2(C)C)C(C)(C)c2c1ccc1cc(Br)ccc21 699
2) CCCCCCn1c(=O)c2c3oc4ccccc4oc3c3c(=O)n(CCCCCC)c(=O)c3c2c1=O 395
3) Cc1cc(-c2cccc3ccccc23)cc(C)[o+]1 438
4) CCCCN(CCCC)c1ccc(C#Cc2cc(C#Cc3ccc(C#N)cc3)c(C#Cc3ccc(N(CCCC)CCCC)cc3)cc2C#Cc2ccc(C#N)cc2)cc1 454
5) CCCCCCCCCCCCCCCCOc1cc(C#Cc2ccc3ccccc3c2-c2c(C#Cc3cc(OCCCCCCCCCCCCCCCC)c(C#Cc4ccc(C=C(C#N)C#N)cc4)cc3OCCCCCCCCCCCCCCCC)ccc3ccccc23)c(OCCCCCCCCCCCCCCCC)cc1C#Cc1ccc(C=C(C#N)C#N)cc1 436
6) CCC1(CC)c2cc(/C=C/c3ccc(/C=C/c4ccc5c(c4)C(CC)(CC)c4cc(N6c7ccccc7Sc7ccccc76)ccc4-5)cc3)ccc2-c2ccc(N3c4ccccc4Sc4ccccc43)cc21 418

---

- assay.remarks: solvent given as SMILES
- reported.conditions: in Cc1ccccc1
Label key: 1 means absorption maximum under 400 nm; -1 means absorption maximum of 400 nm or more.

1) O=S1(=O)C2=C(c3ccc(N(c4ccccc4)c4ccccc4)cc31)C1(C3=C(c4ccccc41)S(=O)(=O)c1cc(N(c4ccccc4)c4ccccc4)ccc13)c1ccccc12 -1
2) c1ccc2c(c1)Sc1ccccc1N2c1ccc2c(c1)C1(CC1)c1cc(N3c4ccccc4Sc4ccccc43)ccc1-2 1
3) CC1=CC(C)=[N+]2C1=C(c1ccc(-c3c4ccccc4c(-c4ccccc4)c4ccccc34)cc1)c1c(C)cc(C)n1[B-]2(F)F -1
4) CN(C)c1ccc2cc(C3=[O+][B-](F)(F)OC(c4ccccc4)=C3)ccc2c1 -1
5) c1ccc2c(c1)Sc1ccccc1N2c1ccc2c(c1)C1(c3ccccc3-c3ccccc31)c1cc(N3c4ccccc4Sc4ccccc43)ccc1-2 1
6) N#Cc1c(-n2c3ccccc3c3cc(I)ccc32)c(C#N)c(-n2c3ccccc3c3cc(I)ccc32)c(-n2c3ccccc3c3cc(I)ccc32)c1-n1c2ccccc2c2cc(I)ccc21 1
7) c1ccc(-c2cc(-c3ccc4ccc5c(-c6ccnc(-c7ccccn7)c6)ccc6ccc3c4c65)ccn2)nc1 1
8) CC(C)(C)c1ccc2c(c1)c1cc(C(C)(C)C)ccc1n2-c1ccc(C(=C(C#N)C#N)c2ccc(-n3c4ccc(C(C)(C)C)cc4c4cc(C(C)(C)C)ccc43)cc2)cc1 -1
9) COc1ccc(C2=[N+]3C(=Nc4c(-c5cc(OC)c(OC)c(OC)c5Br)c(-c5ccc(C(C)(C)C)cc5)c(-c5ccc(OC)cc5)n4[B-]3(F)F)C(c3cc(OC)c(OC)c(OC)c3Br)=C2c2ccc(C(C)(C)C)cc2)cc1 -1
10) CCCCCCCCC1(CCCCCCCC)c2cc(-c3ccc(C=C4C(=O)c5ccccc5C4=O)cc3)ccc2-c2ccc(-c3ccc(C=C4C(=O)c5ccccc5C4=O)cc3)cc21 -1
11) CCN(CC)c1ccc2cc(/C=C/C3=CC(/C=C/c4cc5ccc(N(CC)CC)cc5oc4=O)=[O+][B-](F)(F)O3)c(=O)oc2c1 -1
12) CC(C)(C)c1ccc2c(c1)c1cc(C(C)(C)C)ccc1n2-c1ccc(C#Cc2ccccc2)cc1 1

---

- assay.remarks: solvent given as SMILES
- reported.conditions: in CCCCCCCCO
The molecules listed here are annotated with their absorption maximum.
test.readout: absorption maximum (nm)

1. CN(C)c1ccc(/C=C/c2cc[n+](CCCOCC(COCCC[n+]3ccc(/C=C/c4ccc(N(C)C)cc4)cc3)(COCCC[n+]3ccc(/C=C/c4ccc(N(C)C)cc4)cc3)COCCC[n+]3ccc(/C=C/c4ccc(N(C)C)cc4)cc3)cc2)cc1 485
2. Oc1cccc(/N=C/c2ccccc2Oc2ccccc2)c1 329
3. FC(F)(F)c1ccc(/C=C/c2ccc(-c3nnc(-c4ccc(-c5cc6ccccc6s5)cc4)o3)cc2)cc1 342
4. CCC1=C(C)C2=C(C)c3c(C)c(CC)c(C)n3[B-](F)(F)[N+]2=C1C 521
5. CCN(CC)c1cccc2c1ccc1c(=O)oc(-c3ccc(C(F)(F)F)cc3)cc12 393
6. C(=C\c1cccc2ccccc12)/c1ccc(-c2nnc(-c3ccc(-c4cc5ccccc5s4)cc3)o2)cc1 359
7. CCCCCCCCCCCCCCCCOc1cc(C#Cc2ccc3ccccc3c2-c2c(C#Cc3cc(OCCCCCCCCCCCCCCCC)c(C#Cc4ccc(C=C(C#N)C#N)cc4)cc3OCCCCCCCCCCCCCCCC)ccc3ccccc23)c(OCCCCCCCCCCCCCCCC)cc1C#Cc1ccc(C=C(C#N)C#N)cc1 431

---

- assay.remarks: solvent given as SMILES
- reported.conditions: in CS(C)=O
Items are presented alongside their recorded absorption maximum.

compound	unit.name	absorption maximum
CCN1c2ccc(/C=N/Nc3ccccn3)cc2Sc2cc(/C=N/Nc3ccccn3)ccc21	nm	398
c1ccc(C2CCN3COc4c5ccccc5c5c6c7c(c2c3c46)C(c2ccccc2)CCN7CO5)cc1 (centres undefined)	nm	408
CCN1c2ccc(/C=N/Nc3ccccn3)cc2Sc2cc(-c3ccc(C#N)cc3)ccc21	nm	398
CCOC(=O)c1sc(SC)c2c(=O)n(C)nnc12	nm	393.5
COc1ccccc1-c1c(-c2ccccc2O)nc(-c2ccc(C(F)(F)F)cc2)n1-c1ccc(C)cc1	nm	315
O=C1/C(=C\c2ccc(N(c3ccccc3)c3ccccc3)cc2)S(=O)(=O)c2ccccc21	nm	482
COc1ccc(-c2c3nc(cc4ccc([nH]4)c(-c4ccc(OC)c(OCCCC(=O)O)c4)c4nc(cc5ccc2[nH]5)C=C4)C=C3)cc1OCCCC(=O)O	nm	634
O=C(O)COc1cccc(-c2c3nc(cc4ccc([nH]4)c(-c4cccc(OCC(=O)O)c4)c4nc(cc5ccc2[nH]5)CC4)C=C3)c1	nm	644
CCCCCCCCn1c2ccccc2c(=O)c2ccccc21	nm	404

---

- assay.remarks: solvent given as SMILES
- reported.conditions: in CC#N
# absorption maximum listing for each entry below
test.readout: absorption maximum (nm)

1. O=C1O[B-]2(OC1=O)OC(c1ccc3ccccc3c1)=CC(c1ccc3ccccc3c1)=[O+]2 435
2. COc1cc(-c2nc3c4cccnc4c4ncccc4c3[nH]2)c(OC)cc1/C=C/c1ccncc1 392
3. FC(F)(F)c1ccc(/C=C/c2ccc(-c3nnc(-c4ccc(-c5cc6ccccc6s5)cc4)o3)cc2)cc1 333
4. F[B-]1(F)OC(c2ccc3ccccc3c2)=CC(c2ccc3ccccc3c2)=[O+]1 419
5. N#Cc1cc2ccccc2oc1=O 336
6. NC(=O)Cc1cccc2ccccc12 282
7. Cc1ccc(C)c2nc3c(=O)[nH]c(=O)[nH]c3nc12 388
8. COc1ccc2c(c1)-c1ccccc1C2=O 379
9. c1ccc(-c2nc3c(ccc4[nH]ccc43)o2)cc1 320
10. CC1=CC(C)=[N+]2C1=C(c1ccc(-c3c4ccccc4c(-c4ccccc4)c4ccccc34)cc1)c1c(C)cc(C)n1[B-]2(F)F 499

---

- assay.remarks: solvent given as SMILES
- reported.conditions: in Cc1ccccc1
// values below are reported absorption maximum
test.readout: absorption maximum (nm)

1) COc1ccc(C2=CC3=C(c4c(C)cc(C)cc4C)c4cc(-c5ccc(OC)cc5)c(-c5ccc(OC)cc5)n4[B-](F)(F)[N+]3=C2c2ccc(OC)cc2)cc1 625
2) CC1(C)c2ccccc2N(c2ccccc2)c2ccc(-c3nc(-c4ccccc4)nc(-c4ccccc4)n3)cc21 389.97
3) Cc1cc(C)c(C2=C3C=c4c(c5ccc(C(C)(C)C)cc5c5cc(C(C)(C)C)ccc45)=[N+]3[B-](F)(F)n3c2cc2c4ccc(C(C)(C)C)cc4c4cc(C(C)(C)C)ccc4c23)c(C)c1 698
4) CN(C)c1ccc(C2=Nc3scc(-c4ccc(C#N)cc4)[n+]3[B-](F)(F)O2)cc1 414
5) CCN1/C(=C\c2c(-c3ccc(N(C)C)cc3)c(=O)c2=O)C=Cc2ccccc21 362
6) c1ccc(-c2nc(-c3ccccc3)nc(-c3ccc(-c4ccc(N5c6ccccc6[Si](c6ccccc6)(c6ccccc6)c6ccccc65)cc4)cc3)n2)cc1 308
7) CCn1c2ccccc2c2cc(-c3cc(-c4ccc5c(c4)c4ccccc4n5CC)nc(-c4ccc(C#N)cc4)n3)ccc21 366

---

- assay.remarks: solvent given as SMILES
- reported.conditions: in CC(C)O
test.readout: absorption maximum (nm)

1) COc1ccccc1-c1nc(-c2ccc(C(F)(F)F)cc2)n(-c2ccc(C)cc2)c1-c1ccccc1OC 285
2) CN(C)c1ccc(/C=C/C=C2\CC/C(=C\C=C\c3ccc(N(C)C)cc3)C2=O)cc1 515
3) COc1ccc(-c2cc(-c3ccc(C)cc3)nc3c(C#N)c(N4CCCC4)nc(N)c23)cc1 414
4) CN(C)c1ccc(/C=C/C=N/N=C/c2ccc3ccc4cccc5ccc2c3c45)cc1 432
5) COCCOCCOCCOc1ccc(OCCOCCOCCOC)c(C=O)c1 349

Origin of measurements: the Deep4Chem optical property database
